- Target Desc: Nuclear receptor subfamily 5 group A member 2 (Homo sapiens)
- Assay Protocol: LRH-1 (NR5A2) inverse agonists, primary screen, cell-based, luminescence, HEK293T, StAR-luciferase reporter (AID 602396);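 note: 0% = DMSO wells and 100% = reporter-only cells lacking LRH-1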
- Measurement Conditions: LRH-1 transfected, 24 h, at 3.6 µM, active compounds read high
About 460 (0.13%) of roughly 360,000 compounds were called active. This is one part of a sample in which actives are shown more often than they occur.
Measure: inhibition (%)
Write the answer as a number in %, unit excluded.

CCNC(=O)NNC(=O)C1CC(c2cccs2)=NO1 (stereo not drawn) ... 19.8
C=CCn1c(C)cc(C2=NNC(=NCC)SC2)c1C ... 84.2
CCn1ccnc1CN1CCCC(C(=O)c2ccc3c4c(cccc24)CC3)C1 (stereo not drawn) ... 4.32
COC1=CC(=O)OC(C)(c2ccccc2)C1 (stereo not drawn) ... -28
Cc1cn([C@H]2C[C@H](O)[C@@H](CNC(=O)[C@H](N)Cc3cccnc3)O2)c(=O)[nH]c1=O ... 2.03

Param item = O=C(Nc1nnc(CCN2CCCCC2)s1)c1cccc(Cl)c1 ; retrieve measured inhibition.
0.75

Param item = COc1ccc(NC(=O)c2cccc3c2C(=O)N(CC2CCCO2)C3)cc1OC (stereo not drawn) ; retrieve measured inhibition.
-15.8

Param item = Cc1nn(-c2ccccc2)c2c1C(=O)NC(=O)C(C)(C)C2 ; retrieve measured inhibition.
10.2
